# key: entry, value: IC50
- TESTED TARGET: MAGL (Homo sapiens)
- Sequence (Q99685 1-303): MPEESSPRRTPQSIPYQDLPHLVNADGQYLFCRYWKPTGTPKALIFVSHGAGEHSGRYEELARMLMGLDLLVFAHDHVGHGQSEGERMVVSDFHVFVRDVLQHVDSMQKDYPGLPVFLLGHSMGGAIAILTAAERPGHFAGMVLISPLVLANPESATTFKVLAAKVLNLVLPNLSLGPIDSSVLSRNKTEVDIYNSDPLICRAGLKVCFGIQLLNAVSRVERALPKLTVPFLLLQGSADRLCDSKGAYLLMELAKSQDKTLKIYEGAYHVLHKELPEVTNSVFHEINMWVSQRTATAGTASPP
Numeric only. Scale: nM

In the examples that follow, each entry is paired with its recorded IC50.
Need IC50 of O=C1CO[C@H]2CCN(C(=O)N3C4CCC3CC(COc3ccc(F)cc3Cl)C4)C[C@H]2N1 (stereo partly shown) [Example 26] , thanks.
3690

Follow-up item: O=C1CO[C@H]2CCN(C(=O)N3CC4CN(S(=O)(=O)c5ccc(C(F)(F)F)cc5)CC4C3)C[C@H]2N1 (stereo partly shown) [Example 4]
929

Follow-up item: O=C1CO[C@H]2CCN(C(=O)N3[C@@H]4CC[C@H]3C[C@H](OCc3ccc(C(F)(F)F)cc3F)C4)C[C@H]2N1 [Example 24]
1.4

Now for the compound whose IC50 we want.
Need IC50 of O=C1CO[C@H]2CCN(C(=O)N3C[C@H]4C[C@@H]3C[C@@H]4OCc3cc4c(cn3)CCCC4)C[C@H]2N1 (relative stereo) [Example 9] , thanks.
76

###

- TESTED TARGET: MAGL (Homo sapiens, UniProt Q99685)
- TEST SUMMARY: 2-AG assay (MAGL inhibitory activity, hydrolysis of 2-arachidonoylglycerol followed by mass spectrometry)
- Type: biochemical
- MEASUREMENT SETUP: 50 pM MAGL, 8 μM 2-arachidonoylglycerol, 15 min pre-incubation, 30 min incubation at RT
QUANTITY MEASURED: pIC50
Give only the number. pIC50 is defined as minus log10 of concentration in molar units.

In the examples that follow, each entry is paired with its recorded pIC50.
Item: O=C1CO[C@H]2CCN(C(=O)N3CC4CCC(C3)C4COc3ccc(F)cc3Cl)C[C@H]2N1 (stereo partly shown) [Example 13] Test system: MAGL (Homo sapiens, UniProt Q99685) Read-out: pIC50 Value: ?
8.29

Follow-up item: O=C1CO[C@H]2CCN(C(=O)N3CC4CN(S(=O)(=O)c5ccc(F)cc5Cl)CC4C3)C[C@H]2N1 (stereo partly shown) [Example 5]
6.17

Follow-up item: O=C1CO[C@H]2CCN(C(=O)N3[C@@H]4COC[C@H]3C[C@@H](OCc3ccc(C(F)(F)F)cc3F)C4)C[C@H]2N1 [Example 23]
6.20

Follow-up item: O=C1CO[C@H]2CCN(C(=O)N3CC4CC(C3)C4OCc3ccc(C(F)(F)F)cc3F)C[C@H]2N1 (stereo partly shown) [Example 22]
6.66

Follow-up item: O=C1CO[C@H]2CCN(C(=O)N3CC4CC(OCc5ccc(F)cc5Cl)CC4C3)C[C@H]2N1 (stereo partly shown) [Example 15]
7.96

Follow-up item: Cc1ccccc1OC1CC2CN(C(=O)N3CC[C@@H]4OCC(=O)N[C@@H]4C3)CC2C1 (stereo partly shown) [Example 2]
7.70

***
Item: O=C1CO[C@H]2CCN(C(=O)N3CC4CC(Oc5ccc(C(F)(F)F)cc5F)CC4C3)C[C@H]2N1 (stereo partly shown) [Example 17] Test system: MAGL (Homo sapiens, UniProt Q99685) Read-out: pIC50 Value: ?
8.33
